- assay system: T1, recombinant cynomolgus monkey PD-1 expressed with a C-terminal myc-myc-hexahistidine tag (cynomolgus monkey (Macaca fascicularis))
- T1 construct: monomeric; also called MfPD-1-MMH
- T1 chain: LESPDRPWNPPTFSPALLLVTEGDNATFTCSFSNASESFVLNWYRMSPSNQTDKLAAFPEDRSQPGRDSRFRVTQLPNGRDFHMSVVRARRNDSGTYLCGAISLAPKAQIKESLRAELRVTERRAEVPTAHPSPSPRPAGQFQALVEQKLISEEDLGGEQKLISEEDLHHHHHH
- method notes: SPR, mAb captured, 37C;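 note: rate constants from fitting sensorgrams to a 1:1 binding model, with Kd computed as koff/kon and half-life as ln2/(60·koff), PD-1 flowing over anti-PD-1 antibody surfaces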
The following binders are listed with their measured t½ values.
# output: bare number, implied unit min

Sample H2aM7780N (antibody, mouse IgG2a, V domains shown, Human variable regions, mouse IgG2a Fc (H2aM prefix); also called H2M7780N) VH: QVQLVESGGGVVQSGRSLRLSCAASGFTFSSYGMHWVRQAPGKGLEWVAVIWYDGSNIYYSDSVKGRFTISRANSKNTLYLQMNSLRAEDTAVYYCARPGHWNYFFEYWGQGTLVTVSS VL: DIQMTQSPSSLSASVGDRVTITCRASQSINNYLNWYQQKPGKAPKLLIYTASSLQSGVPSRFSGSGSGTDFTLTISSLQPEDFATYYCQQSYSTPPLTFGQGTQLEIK ; t½ observed: 8.3

H1M7789N (antibody, mouse IgG1, V domains shown, Human variable regions, mouse IgG1 Fc) VH: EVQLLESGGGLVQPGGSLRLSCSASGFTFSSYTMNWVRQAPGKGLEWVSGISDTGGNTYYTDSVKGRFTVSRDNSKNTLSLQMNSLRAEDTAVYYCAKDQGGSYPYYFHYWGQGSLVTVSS VL: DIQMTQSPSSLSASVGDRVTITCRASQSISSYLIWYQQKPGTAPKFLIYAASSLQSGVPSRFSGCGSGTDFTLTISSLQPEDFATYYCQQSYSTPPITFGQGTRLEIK has a reported t½ of 28
